Every entry's value here was drawn from ChEMBL document CHEMBL1201862.

Tested on: NCI/ADR-RES
TEST SUMMARY: NCI tumour cell line growth inhibition, 48 h
Active and inactive are the calls of the source. Rule as the data show it: active = GI50 up to about 1.1 µM and inactive = higher.

- COMPOUND: "CCCNC(=S)N/N=C/c1cccc(C)n1"
  GI50: "31 µM (inactive)"
- COMPOUND: "Cc1ccc(S(=O)(=O)N(CC(O)c2ccccc2)c2ccccc2F)cc1 (stereo unspecified)"
  GI50: "16.4 µM (inactive)"
- COMPOUND: "COC(=O)c1ccccc1C1CN=NC12Cc1c(C)cccc1C2=O (stereo unspecified)"
  GI50: "60.8 µM (inactive)"
- COMPOUND: "CC1=C(C)SC(=C2Sc3[n-]c(=O)[nH]c(=O)c3S2)S1.CCCC[N+](CCCC)(CCCC)CCCC"
  GI50: "95.9 µM (inactive)"
- COMPOUND: "CC1=C2c3ccccc3N(C(=O)/C=C/C(=O)O)[C@H]2[C@H]2C(=O)OC(=O)[C@H]2C1"
  GI50: "> 10 µM (inactive)"
- COMPOUND: "COc1cc(S(=O)(=O)Nc2ccc(-c3csc(N4C(=O)C(Cl)C4c4ccccc4O)n3)cc2)ccc1Cl (stereo unspecified)"
  GI50: "> 100 µM (inactive)"
- COMPOUND: "CCNC(=S)N/N=C/c1ccccn1"
  GI50: "6.95 µM (inactive)"
- COMPOUND: "CN1CCN(C(=O)CCC(=O)Nc2cc3c(c4ccccc24)-c2ccc4ccccc4c2C3)CC1"
  GI50: "2.21 µM (inactive)"
- COMPOUND: "COC1OC2COC1(OC)C1OC(C)(C)OC21 (stereo unspecified)"
  GI50: "> 100 µM (inactive)"
- COMPOUND: "CS/C(=N\\C#N)S/C=C/C(=O)c1ccc(Cl)cc1"
  GI50: "27.7 µM (inactive)"
- COMPOUND: "COc1ccc(CCc2ccc(O)c(C(=O)O)c2)cc1OC"
  GI50: "> 100 µM (inactive)"
- COMPOUND: "CC(C)c1cc(C(C)C)c(P2(=O)CC3C(Cl)(Cl)C3(C)C2)c(C(C)C)c1 (stereo unspecified)"
  GI50: "6.04 µM (inactive)"
- COMPOUND: "CC(C)N(C(=O)C1(O)c2ccccc2C=Cc2ccccc21)C(C)C"
  GI50: "18.2 µM (inactive)"
- COMPOUND: "C[C@]12CC[C@H](O)C=C1CC[C@@H]1[C@@H]2CC[C@]2(C)C(=N/O)/C(=C/c3ccncc3)C[C@@H]12"
  GI50: "17.5 µM (inactive)"
- COMPOUND: "CC(=O)c1[nH]c(Nc2ccc(C)cc2)c(C(=S)Nc2ccccc2)c1N"
  GI50: "26.8 µM (inactive)"
- COMPOUND: "C[N+](C)(C)c1ncnc2c1ncn2C1CC(O)C(CO)O1 (stereo unspecified)"
  GI50: "> 100 µM (inactive)"
- COMPOUND: "N=C(CC(=O)NOC(=O)c1ccccc1)NOC(=O)c1ccccc1"
  GI50: "25.5 µM (inactive)"
- COMPOUND: "Cc1ccc(C(=O)/C=C(\\O)C(=O)NN=C(c2ccccc2)c2ccccc2)cc1"
  GI50: "30.5 µM (inactive)"
- COMPOUND: "CCc1nc2c(n1CC)C(=O)c1ccccc1C2=O"
  GI50: "31.2 µM (inactive)"
- COMPOUND: "Cc1c(/N=N/c2ccccc2)c(C)n(C2OC(CO)C(O)C(O)C2O)c(=S)c1C#N (stereo unspecified)"
  GI50: "42.4 µM (inactive)"
- COMPOUND: "COc1ccc(P2(=S)OC(C)(C)C(C)(C)O2)cc1"
  GI50: "> 100 µM (inactive)"
